Tested on: SF-539 CNS
assay_comment: NCI tumour cell line growth inhibition, 48 h
Listing of entries alongside the reported TGI.
Quick reminder: number only, in µM, skip the unit.

Worked set:
[[record]]
compound = "CN(Cc1cc(C(C)(C)C)cc(Br)c1O)Cc1cc(C(C)(C)C)cc(Br)c1O"
endpoint_name = "TGI"
quantity_unit = "µM"
meas_value = 7.66

[[record]]
compound = "C#CCOc1cccc(Nc2ncnc3cc(NC(=O)CCl)ccc23)c1"
endpoint_name = "TGI"
quantity_unit = "µM"
meas_value = 15

[[record]]
compound = "N#CC1(C#N)C(C#N)(C#N)C12CCCCCC2"
endpoint_name = "TGI"
quantity_unit = "µM"
meas_value = 18

[[record]]
compound = "COc1ccc(SCc2cc(OCc3ccccc3)c(OCc3ccccc3)c(OCc3ccccc3)c2)cc1"
endpoint_name = "TGI"
quantity_unit = "µM"
meas_value = 3.45

[[record]]
compound = "CO/N=C(\\C)c1cccc(Nc2c3ccccc3nc3occc23)c1"
endpoint_name = "TGI"
quantity_unit = "µM"
meas_value = 21.5


Return TGI measured with SF-539 CNS given this compound: C/C(=N\NC(=S)NCCCNC(=S)N/N=C(\C)c1ccccn1)c1ccccn1
8.72

Queued: OCCNCNc1nc(NCNCCO)nc(N(CNCCO)CNCCO)n1
41.3

How about this compound: Cc1ccc(O)c(NC(=O)c2ccc(CNc3ccnc(C(F)(F)F)c3)cc2)c1
20.9

Try this compound too: COc1cc(C2CC(c3ccc(Nc4ccnc5cc(Cl)ccc45)cc3)=NN2c2ccc(Cl)cc2)cc(OC)c1OC (centres undefined)
7.36

---

// reported GI50 per item
System: HCC-2998 colon
assay_comment: NCI tumour cell line growth inhibition, 48 h

Worked examples, 5 molecules total:
[[record]]
molecule = "CN(C)CCCNC(=O)c1cc(NC(=O)c2cc(NC(=O)CCNS(=O)(=O)c3ccc4c(c3)C(=O)c3ccccc3C4=O)cn2C)cn1C"
meas_value = "> 100000 nM"

[[record]]
molecule = "CCN(CC)c1ccc(C(=O)c2ccc(N(CC)CC)cc2)cc1"
meas_value = "1260 nM"

[[record]]
molecule = "Cc1ccc(Cl)cc1NC(=O)c1sc2nc3c(cc2c1N)C(=O)CCC3"
meas_value = "> 100000 nM"

[[record]]
molecule = "O=C(/C=C/c1ccc(C(F)(F)F)cc1)c1ccc(Nc2nc(NCCO)nc(Nc3ccc(Cl)cc3)n2)cc1"
meas_value = "2930 nM"

[[record]]
molecule = "Cc1ncc(C(=O)Nc2ccc(CN3CCN(C)CC3)c(C(F)(F)F)c2)cc1C#Cc1cnc(N)cc1C#N"
meas_value = "1110 nM"


Consider the molecule C=C1C(=O)O[C@H]2[C@H]1CC/C(Cn1cc(-c3ccccc3C(F)(F)F)nn1)=C\CC[C@@]1(C)O[C@@H]21 and give its measured GI50.
1850 nM

---

Test system: BT-549 breast
assay_comment: NCI tumour cell line growth inhibition, 48 h
endpoint_name: TGI

// known answers, use as guide
[[record]]
smiles_code = "CCCCn1c2c(n(CCCC)c1=S)-c1c(n(CCCC)c(=S)n1CCCC)SSc1c(n(CCCC)c(=S)n1CCCC)-c1c(n(CCCC)c(=S)n1CCCC)SSc1c(n(CCCC)c(=S)n1CCCC)-c1c(n(CCCC)c(=S)n1CCCC)SS2"
meas_value = "> 50 µM"

[[record]]
smiles_code = "Cc1ncc(C(=O)Nc2ccc(CN3CCN(C)CC3)c(C(F)(F)F)c2)cc1C#Cc1cnc(N)cc1C#N"
meas_value = "3.58 µM"


Consider the molecule shown here: O=C(OC[C@H]1O[C@H](OC(=O)c2cc(O)c(O)c(OC(=O)c3cc(O)c(O)c(O)c3)c2)[C@H](OC(=O)c2cc(O)c(O)c(OC(=O)c3cc(O)c(O)c(O)c3)c2)[C@@H](OC(=O)c2cc(O)c(O)c(OC(=O)c3cc(O)c(O)c(O)c3)c2)[C@@H]1OC(=O)c1cc(O)c(O)c(OC(=O)c2cc(O)c(O)c(O)c2)c1)c1cc(O)c(O)c(OC(=O)c2cc(O)c(O)c(O)c2)c1 What is its recorded TGI?
> 25 µM

---

Test system: 786-0 renal
assay_comment: NCI tumour cell line growth inhibition, 48 h
// values below are reported TGI

Past entries and their recorded results:
[[record]]
compound = "CCCSS[C@H]1NC(=O)[C@H]1NC(=O)COc1ccccc1"
subject_of_test = "786-0 renal"
endpoint_name = "TGI"
meas_value = "31.5 µM"

[[record]]
compound = "CN(Cc1cc(C(C)(C)C)cc(Br)c1O)Cc1cc(C(C)(C)C)cc(Br)c1O"
subject_of_test = "786-0 renal"
endpoint_name = "TGI"
meas_value = "13.8 µM"

[[record]]
compound = "O=c1c(-c2ccccc2)coc2cc(OC/C(=N/O)c3ccccc3)ccc12"
subject_of_test = "786-0 renal"
endpoint_name = "TGI"
meas_value = "50.4 µM"

[[record]]
compound = "CC(C)(c1ccccc1)c1ccc(OC#N)cc1"
subject_of_test = "786-0 renal"
endpoint_name = "TGI"
meas_value = "> 100 µM"

[[record]]
compound = "CC(C)NC(=O)CN1CCN(c2c(O)c3c(c(O)c2Cl)C(=O)C=CC3=O)CC1"
subject_of_test = "786-0 renal"
endpoint_name = "TGI"
meas_value = "6.14 µM"


Write down the reported TGI of NC(N)=Nc1ccc(CC(N)C(=O)O)cc1 (stereo unspecified) , test system: 786-0 renal.
> 12.5 µM

Could you do the same for Cc1cc(S(=O)(=O)Nc2nc3ccccc3c(=O)n2N)c(S)cc1Cl , please?
81.6 µM

Same read-out for CC(C)OP(=O)(NC(=S)c1ccccc1)OC(C)C ?
> 100 µM

Also Cn1cc(-c2ccc(-c3ccc(C4=NC5(CC5)C(=O)N4C[C@@H]4CCN(C(=O)C5CC5)C4)cc3)cc2)cn1 ?
> 100 µM

Param item: Cn1cc2ccccc2c1-c1nc(F)nc(OCC(=O)[C@H]2CCC3[C@@H]4CCC5=CC(=O)CC[C@]5(C)C4[C@@H](O)C[C@@]32C)n1 (stereo partly specified)
30.5 µM

---

A collection of molecules and their measured TGI
Test system: HOP-92 NSCLC
assay_comment: NCI tumour cell line growth inhibition, 48 h

Quick one: TGI for CN(C)CC/[N+]([O-])=C(/c1ccccc1)C12CC3CC(CC(C3)C1)C2 ?
28.8 µM

Continue with CC(=O)Nc1ccc(C2SCc3nc4ccccc4n32)cc1 (centres undefined)
> 100 µM

---

Tested on: MDA-MB-435
Result category, one only: active, inactive

Below, 6 compounds whose answers are already recorded.
[[record]]
compound = "C[N+]1=C(/C=C\\C=C\\c2ccccc2)C(C)(C)c2ccccc21"
class_name = "inactive"

[[record]]
compound = "Oc1ccc2oc3ncc(Br)c(-c4ccccc4)c3c2c1"
class_name = "inactive"

[[record]]
compound = "Cc1ccc(O)c(NC(=O)c2ccc(CNc3ccnc(C(F)(F)F)c3)cc2)c1"
class_name = "inactive"

[[record]]
compound = "O=c1c(-c2ccccc2)coc2cc(OC/C(=N/O)c3ccccc3)ccc12"
class_name = "inactive"

[[record]]
compound = "C=C1CC2(OC1=O)C(=O)Nc1ccccc12 (configuration not stated)"
class_name = "inactive"

[[record]]
compound = "O=C(/C=C/c1ccc(C(F)(F)F)cc1)c1ccc(Nc2nc(NCCO)nc(Nc3ccc(Cl)cc3)n2)cc1"
class_name = "inactive"


As a next step, examine the compound that follows.
Test call, this compound: O=C1C(=O)c2cccnc2-c2ncccc21
active

---

Test system: HT29 colon
assay_comment: NCI tumour cell line growth inhibition, 48 h
endpoint_name: TGI

Recorded results for 3 compounds are shown here.
[[record]]
compound = "C=C(Br)CNC(=O)CCC(=O)NCC(=C)Br"
meas_value = "> 100 µM"

[[record]]
compound = "CCN(CC)c1ccc(C(=O)c2ccc(N(CC)CC)cc2)cc1"
meas_value = "3.78 µM"

[[record]]
compound = "COc1cc2c(cc1OCCCC(=O)Nc1ccc3ccc4cccc5ccc1c3c45)N=C[C@@H]1CCCN1C2=O"
meas_value = "> 83.6 µM"


What value of measured TGI is listed for O=[N+]([O-])c1cc(-c2nc(-c3ccccc3)c(-c3ccccc3)[nH]2)c(O)c([N+](=O)[O-])c1 ?
35.8 µM

Param item: N#CC1CC2(CCN1C(=O)c1ccccc1)OCCO2 (stereo unspecified)
> 100 µM

Also check COc1ccc(-c2ccc(-c3ccc(C(=N)N)o3)o2)cc1
2.82 µM

# repeat for N#C/C(N)=C(\C#N)NC(=O)C(=O)N/C(C#N)=C(\N)C#N
> 100 µM

Again, but for CCN(CC)c1ccc(N=Nc2ccc(-c3nc4ccc[n+](C)c4o3)cc2)cc1
24.3 µM

# iterate: Cc1ccnc(NC(NC(=O)c2ccccc2)(C(F)(F)F)C(F)(F)F)c1
> 100 µM

Item: O=C1c2ccccc2-c2c1c1ccccc1c(=O)n2CCCn1ccnc1
6.27 µM

Can you handle O=C1C(Cl)=C(Nc2ccc(S(=O)(=O)Nc3ccccn3)cc2)C(=O)c2ccccc21 next?
22.3 µM
